Study target: ERα (Homo sapiens, UniProt P03372)
Sequence (P03372 1-595): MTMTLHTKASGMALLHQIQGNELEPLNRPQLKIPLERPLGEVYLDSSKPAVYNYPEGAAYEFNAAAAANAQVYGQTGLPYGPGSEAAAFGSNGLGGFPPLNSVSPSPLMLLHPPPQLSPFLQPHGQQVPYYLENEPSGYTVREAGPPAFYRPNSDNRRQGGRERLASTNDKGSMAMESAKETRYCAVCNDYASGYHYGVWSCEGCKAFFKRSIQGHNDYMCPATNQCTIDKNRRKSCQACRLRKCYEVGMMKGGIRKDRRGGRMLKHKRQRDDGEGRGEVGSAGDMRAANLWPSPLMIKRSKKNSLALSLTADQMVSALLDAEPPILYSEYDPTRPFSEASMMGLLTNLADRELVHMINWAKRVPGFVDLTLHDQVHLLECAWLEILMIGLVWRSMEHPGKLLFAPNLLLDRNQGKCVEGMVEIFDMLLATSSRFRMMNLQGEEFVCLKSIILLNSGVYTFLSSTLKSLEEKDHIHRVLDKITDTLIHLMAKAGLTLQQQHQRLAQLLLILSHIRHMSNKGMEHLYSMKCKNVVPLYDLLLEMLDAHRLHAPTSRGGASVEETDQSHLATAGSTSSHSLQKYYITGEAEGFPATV
Protocol summary: ERα degradation in T-47D cells (Western blot)
Assay type: cell-based
Experimental conditions: 10nM, 4 hours
Param label: returns rule met when Degradation rate of ERα in T-47D cells (%) < 50%, returns rule not met otherwise, including exact equality.

Worked examples follow.
>  <Molecule>
O=C1CCC(Nc2ccc3c(c2)OC2(CC3)CCN(C[C@H]3CC[C@@H](OC4CCN(c5ccc([C@@H]6c7ccc(O)cc7CC[C@@H]6c6ccccc6)cc5)CC4)CC3)CC2)C(=O)N1 (stereo partly shown)

>  <Answer label>
rule met

$$$$
>  <Molecule>
CN(C(=O)CN1CCC2(CC1)COc1c2ccc(F)c1C(=O)N[C@H]1CCC(=O)NC1=O)C1CCC2(CC1)CN(c1ccc([C@@H]3c4ccc(O)cc4CC[C@@H]3c3ccccc3)cc1)C2

>  <Answer label>
rule met

$$$$
>  <Molecule>
O=C1CCC(N2Cc3c(ccc4c3OCC43CCC4(CCN(C5CCC6(CC5)CN(c5ccc([C@@H]7c8ccc(O)cc8CC[C@@H]7c7ccccc7)cc5)C6)CC4)CC3)C2=O)C(=O)N1 (stereo partly shown)

>  <Answer label>
rule not met

$$$$
>  <Molecule>
O=C1CCC(Nc2ccc3c(c2)COC[C@H]2CN(CC4CCC(OC5CCN(c6ccc([C@@H]7c8ccc(O)cc8CC[C@@H]7c7ccccc7)cc6)CC5)CC4)CCN32)C(=O)N1 (single isomer, unassigned) [ER-P-51]

>  <Answer label>
rule met

$$$$
>  <Molecule>
Cn1c(=O)n(C2CCC(=O)NC2=O)c2ccc3c(c21)OCC31CCN(C[C@H]2CC[C@@H](OC3CCN(c4ccc([C@@H]5c6ccc(O)cc6CC[C@@H]5c5ccccc5)cc4)CC3)CC2)CC1 (stereo partly shown)

>  <Answer label>
rule not met

$$$$
>  <Molecule>
Cn1c(=O)n(C2CCC(=O)NC2=O)c2ccc3c(c21)OCC31CCN(C2CCN(C(=O)C3CCN(c4ccc([C@@H]5c6ccc(O)cc6CC[C@@H]5c5ccccc5)cc4)CC3)CC2)CC1 (stereo partly shown)

>  <Answer label>
rule not met

$$$$
>  <Molecule>
O=C1CC[C@H](NC(=O)c2cc3c(cc2F)N2CCN(C[C@H]4CC[C@@H](OC5CCN(c6ccc([C@@H]7c8ccc(O)cc8CC[C@@H]7c7ccccc7)cc6)CC5)CC4)C[C@@H]2CO3)C(=O)N1

>  <Answer label>
rule met

$$$$
>  <Molecule>
Cn1c(=O)n(C2CCC(=O)NC2=O)c2cc3c(cc21)C1(CCN(C2CCC4(CC2)CN(c2ccc([C@@H]5c6ccc(O)cc6CC[C@@H]5c5ccccc5)cc2)C4)CC1)CO3 (stereo partly shown)

>  <Answer label>
rule not met

$$$$
>  <Molecule>
O=C1CCC(Nc2ccc3c(c2)COC[C@H]2CN(C[C@H]4CC[C@@H](OC5CCN(c6ccc([C@@H]7c8ccc(O)cc8CC[C@@H]7c7ccccc7)cc6)CC5)CC4)CCN32)C(=O)N1 (stereo partly shown)

>  <Answer label>
rule met

$$$$

Note: attention shifts to another entry.
**Q:** In plain terms, does O=C1CC[C@H](NC(=O)c2ccc3c(c2)OCC[C@H]2CN(CC4CCC(OC5CCN(c6ccc([C@@H]7c8ccc(O)cc8CC[C@@H]7c7ccccc7)cc6)CC5)CC4)CCN32)C(=O)N1 (stereo partly shown) [ER-P-44] come in under 50% for Degradation rate of ERα in T-47D cells (%)?
**A:** rule met

----------
Study target: ERα (Homo sapiens)
Protocol summary: ERα degradation in T-47D cells (Western blot)
Assay type: cell-based
Experimental conditions: 1nM, 4 hours
Use 20% as the dividing line for Degradation rate of ERα in T-47D cells (%), with the line itself on the true side and lower values as false.

Worked examples follow.
>  <Compound>
O=C1CCC(N2Cc3c(ccc4c3OCC43CCC4(CC3)CN(C3CCN(C(=O)C5CCN(c6ccc([C@@H]7c8ccc(O)cc8CC[C@@H]7c7ccccc7)cc6)CC5)CC3)C4)C2=O)C(=O)N1 (some centres unmarked)

>  <Answer label>
true

$$$$
>  <Compound>
CN(c1ccc2c(c1)COC[C@H]1CN(CC3CCC(OC4CCN(c5ccc([C@@H]6c7ccc(O)cc7CC[C@@H]6c6ccccc6)cc5)CC4)CC3)CCN21)C1CCC(=O)NC1=O (some centres unmarked) [ER-P-53]

>  <Answer label>
false

$$$$
>  <Compound>
C[C@@H]1Cc2cc(O)ccc2C(c2c(F)cc(N3CCC4(CC3)CC(N3CC5(CCC6(CC5)COc5c6ccc6c5CN(C5CCC(=O)NC5=O)C6=O)C3)C4)cc2F)N1CC(F)F (some centres unmarked)

>  <Answer label>
true

$$$$

Note: attention shifts to another entry.
**Q:** Has O=C1CCC(N2Cc3c(ccc4c3OCC43CCC4(CCN(C5CC6(CCN(c7ccc([C@@H]8c9ccc(O)cc9CC[C@@H]8c8ccccc8)cc7)CC6)C5)CC4)CC3)C2=O)C(=O)N1 (some centres unmarked) a recorded Degradation rate of ERα in T-47D cells (%) greater than or equal to 20%?
**A:** true

----------
Study target: AR protein (Homo sapiens, UniProt P10275, T878A)
Construct: host or cells: LNCaP FGC
Sequence (P10275 whole entry T878A): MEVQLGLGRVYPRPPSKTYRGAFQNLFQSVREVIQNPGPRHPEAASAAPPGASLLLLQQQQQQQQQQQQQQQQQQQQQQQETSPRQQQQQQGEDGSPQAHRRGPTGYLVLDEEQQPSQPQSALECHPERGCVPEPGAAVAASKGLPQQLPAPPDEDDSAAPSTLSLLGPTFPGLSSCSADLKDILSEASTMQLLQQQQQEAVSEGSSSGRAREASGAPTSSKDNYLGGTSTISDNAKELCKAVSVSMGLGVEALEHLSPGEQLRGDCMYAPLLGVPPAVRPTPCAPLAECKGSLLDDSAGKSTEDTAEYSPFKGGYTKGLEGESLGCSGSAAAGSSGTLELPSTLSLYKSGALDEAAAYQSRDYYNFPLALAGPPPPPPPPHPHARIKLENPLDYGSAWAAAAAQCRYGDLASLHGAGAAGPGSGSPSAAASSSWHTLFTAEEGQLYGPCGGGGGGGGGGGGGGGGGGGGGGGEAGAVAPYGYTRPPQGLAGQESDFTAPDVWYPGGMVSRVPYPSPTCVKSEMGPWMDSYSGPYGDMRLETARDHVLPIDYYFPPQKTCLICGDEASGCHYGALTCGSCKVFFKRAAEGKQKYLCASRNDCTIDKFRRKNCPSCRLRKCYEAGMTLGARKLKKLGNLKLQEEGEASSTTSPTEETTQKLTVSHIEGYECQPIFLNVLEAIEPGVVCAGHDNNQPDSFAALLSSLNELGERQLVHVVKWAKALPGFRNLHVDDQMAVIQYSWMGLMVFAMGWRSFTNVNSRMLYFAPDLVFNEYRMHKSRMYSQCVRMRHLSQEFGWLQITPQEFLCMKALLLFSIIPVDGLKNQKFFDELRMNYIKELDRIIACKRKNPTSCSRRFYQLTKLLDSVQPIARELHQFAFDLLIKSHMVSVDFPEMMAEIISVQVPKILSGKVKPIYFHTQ
Protocol summary: AR protein degradation in LNCaP cells (Western blot)
Type: cell-based
Experimental conditions: 10 nM, 8 hours
Record form. Attribute: Degradation of AR protein in LNCaP cells, 10 nM (%). Fill in for each entry.
Give bare numbers, in %.

Worked cases, answers included:
>  <Compound>
COc1cc(O[C@H]2C(C)(C)[C@H](NC(=O)c3ccc(N4CCC(CN5CCC6(CC5)COc5c6ccc(C(=O)N[C@H]6CCC(=O)NC6=O)c5F)(OC)CC4)cc3)C2(C)C)ccc1C#N

>  <Readout units>
%

>  <Measured result>
37

$$$$
>  <Compound>
COc1cc(O[C@H]2C(C)(C)[C@H](NC(=O)c3ccc(N4CCC(F)(CN5CCC6(CC5)COc5c6ccc(C(=O)N[C@H]6CCC(=O)NC6=O)c5F)CC4)cc3)C2(C)C)ccc1C#N

>  <Readout units>
%

>  <Measured result>
-6

$$$$
>  <Compound>
N#Cc1ccc(O[C@H]2CC[C@H](NC(=O)c3ccc(N4CCC(N5CC6(CCC7(CC6)COc6c7ccc7c6CN(C6CCC(=O)NC6=O)C7=O)C5)CC4)nn3)CC2)cc1Cl (relative stereo)

>  <Readout units>
%

>  <Measured result>
66

$$$$

Fill in Degradation of AR protein in LNCaP cells, 10 nM (%) for each of the 2 compounds listed.
1. COc1cc(O[C@H]2C(C)(C)[C@H](NC(=O)c3ccc(N4CCC5(CC4)CC(N4CCC6(CC4)COc4cc7c(cc46)n(C)c(=O)n7C4CCC(=O)NC4=O)C5)cc3)C2(C)C)ccc1C#N (relative stereo)
2. COc1cc(O[C@H]2C(C)(C)[C@H](NC(=O)c3ccc(N4CCC(CN5CCC6(CC5)COc5c6ccc(C(=O)N[C@H]6CCC(=O)NC6=O)c5OC)CC4)cc3)C2(C)C)ccc1C#N

**A:**
52
-2

----------
System: LNCaP cells
Protocol summary: Inhibition of LNCaP cell proliferation (WST-8)
Assay type: cell-based
Experimental conditions: Homo sapiens, LNCaP FGC cells, 96 hours
Classification scheme (IC50): low = under 0.6 µM, moderate = from 0.6 µM up to 8 µM, high = 8 µM and over

Worked examples follow.
>  <Compound>
COc1cc2c(cc1C(=O)N[C@H]1CCC(=O)NC1=O)OCC21CCN(CC2CCN(c3ccc(N4CCC5(CC4)C[C@H](C)N(c4ccc(C#N)c(Cl)c4)C5)cc3)CC2)CC1

>  <Study target>
LNCaP cells

>  <Answer label>
moderate

$$$$
>  <Compound>
C[C@H]1CC2(CCN(c3ccc(C(=O)N4CCC(CN5CCC6(CC5)COc5cc(NC7CCC(=O)NC7=O)ccc56)CC4)cc3)CC2)CN1c1ccc(C#N)c(Cl)c1 (stereo partly shown)

>  <Study target>
LNCaP cells

>  <Answer label>
low

$$$$
>  <Compound>
COc1cc(O[C@H]2C(C)(C)[C@H](NC(=O)c3ccc(N4CCC(C)(CN5CCC6(CC5)COc5cc7c(cc56)n(C)c(=O)n7C5CCC(=O)NC5=O)CC4)cc3)C2(C)C)ccc1C#N (relative stereo)

>  <Study target>
LNCaP cells

>  <Answer label>
high

$$$$
>  <Compound>
CC1(C)[C@H](NC(=O)c2ccc(N3CCC(CN4CCC5(CCc6cc(C(=O)N[C@H]7CCC(=O)NC7=O)c(F)cc6O5)CC4)CC3)nc2)C(C)(C)[C@H]1Oc1ccc(C#N)c(C(F)(F)F)c1

>  <Study target>
LNCaP cells

>  <Answer label>
low

$$$$
>  <Compound>
COc1cc(O[C@H]2C(C)(C)[C@H](NC(=O)c3ccc(N4CCC(F)(CN5CCC6(CC5)COc5cc7c(cc56)n(C)c(=O)n7C5CCC(=O)NC5=O)CC4)cc3)C2(C)C)ccc1C#N (stereo partly shown)

>  <Study target>
LNCaP cells

>  <Answer label>
high

$$$$
>  <Compound>
COc1cc(O[C@H]2C(C)(C)[C@H](NC(=O)c3ccc(N4CCC(CN5CCC6(CCc7cc(F)c(C(=O)N[C@H]8CCC(=O)NC8=O)cc7O6)CC5)CC4)cc3)C2(C)C)ccc1C#N

>  <Study target>
LNCaP cells

>  <Answer label>
high

$$$$
>  <Compound>
C[C@H]1CC2(CCN(c3ccc(C(=O)N4CCC(CN5CCN6c7ccc(C(=O)N[C@H]8CCC(=O)NC8=O)cc7OC[C@@H]6C5)CC4)cc3)CC2)CN1c1ccc(C#N)c(Cl)c1

>  <Study target>
LNCaP cells

>  <Answer label>
low

$$$$

Note: attention shifts to another entry.
**Q:** Kindly identify the class of CC1(CN2CCC3(CCc4cc(C(=O)N[C@H]5CCC(=O)NC5=O)c(F)cc4O3)CC2)CCN(c2ccc(C(=O)N[C@H]3C(C)(C)[C@H](Oc4ccc(C#N)c(Cl)c4)C3(C)C)cc2)CC1 .
**A:** moderate
